# pIC50 per record follows
- test.target: Avi-KRAS G12V (1-169) GppNHp/RAF1 RBD-3xFLAG (52-151) (Homo sapiens, UniProt P01116, G12V)
- Construct: Avi-KRAS G12V (1-169)
- Sequence (P01116 1-169 isoform P01116-2 G12V): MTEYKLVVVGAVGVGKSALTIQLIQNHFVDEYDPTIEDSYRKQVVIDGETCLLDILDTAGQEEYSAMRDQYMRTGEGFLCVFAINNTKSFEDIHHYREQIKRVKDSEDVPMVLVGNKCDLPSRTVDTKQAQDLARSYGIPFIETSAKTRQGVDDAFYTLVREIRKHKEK
- assay: Raf1-KRAS G12V-GppNHP disruption HTRF assay (Biological Example 1)
- Format: binding
- conditions.used: KRAS G12V, GppNHp-loaded; class symbols
pIC50: −log10 of the molar value.

Answered examples (3):
{"columns": ["compound", "pIC50"],
 "data": [
  ["CCN(c1nc(OC[C@@]23CCCN2C[C@H](F)C3)nc2c(F)c(-c3ccc(F)c4sc(N)c(C#N)c34)c(C(F)(F)F)cc12)[C@H]1CCN(C(=O)N2CC(C#N)C2)C1 (atropisomer, axis not shown)", "> 7.00"],
  ["CCN(c1nc(OC[C@@]23CCCN2C[C@H](F)C3)nc2c(F)c(-c3ccc(F)c4sc(N)c(C#N)c34)c(C(F)(F)F)cc12)[C@H]1CCN(C(=O)c2ccsn2)C1 (atropisomer, axis not shown)", "> 7.00"],
  ["CCN(c1nc(OC[C@@]23CCCN2C[C@H](F)C3)nc2c(F)c(-c3ccc(F)c4sc(N)c(C#N)c34)c(C(F)(F)F)cc12)[C@H]1C[C@@H](C)N(C(=O)C2COC2)C1 (atropisomer, axis not shown)", "6.00 to 7.00"]
]}

Next, consider the following compound.
Note pIC50 for the compound shown: CCN(c1nc(OC[C@@]23CCCN2C[C@H](F)C3)nc2c(F)c(-c3ccc(F)c4sc(N)c(C#N)c34)c(C(F)(F)F)cc12)[C@H]1CCN(C(=O)OC2CC2)C1 (atropisomer, axis not shown) > 7.00

----------
- Test system: SW620 cells (KRAS G12V)
- assay: Cell-based pERK HTRF assay in SW620 cell (Biological Example 4)
- conditions.used: Homo sapiens, SW-620, SW620 (KRAS G12V) cells, pERK HTRF
pIC50: −log10 of the molar value.
Measured pIC50 values are reported for all entries that follow.

Consider the reported pIC50 for these molecules:
{"columns": ["molecule", "test.target", "readout.label", "result"],
 "data": [
  ["CCN(c1nc(OC[C@@]23CCCN2C[C@H](F)C3)nc2c(F)c(-c3ccc(F)c4sc(N)c(C#N)c34)c(C(F)(F)F)cc12)[C@H]1C[C@H](C)N(C(=O)C(C)C)C1", "SW620 cells (KRAS G12V)", "pIC50", "> 7.00"],
  ["CC(C)C(=O)N1CC[C@@H](N(C)c2nc(OC[C@@]34CCCN3C[C@H](F)C4)nc3c(F)c(-c4ccc(F)c5sc(N)c(C#N)c45)c(C(F)(F)F)cc23)[C@@H]1C", "SW620 cells (KRAS G12V)", "pIC50", "6.00 to 7.00"],
  ["CN(C)C(=O)c1cn2c(n1)CN(c1nc(OC[C@@]34CCCN3C[C@H](F)C4)nc3c(F)c(-c4ccc(F)c5sc(N)c(C#N)c45)c(C(F)(F)F)cc13)CC2", "SW620 cells (KRAS G12V)", "pIC50", "> 7.00"],
  ["C[C@]1(O)CCCN(c2nc(OC[C@@]34CCCN3C[C@H](F)C4)nc3c(F)c(-c4ccc(F)c5sc(N)c(C#N)c45)c(C(F)(F)F)cc23)C1", "SW620 cells (KRAS G12V)", "pIC50", "> 7.00"],
  ["CC(=O)N1C[C@@H](N(C)c2nc(OC[C@@]34CCCN3C[C@H](F)C4)nc3c(F)c(-c4ccc(F)c5sc(N)c(C#N)c45)c(C(F)(F)F)cc23)C[C@H]1CC#N", "SW620 cells (KRAS G12V)", "pIC50", "6.00 to 7.00"],
  ["N#Cc1c(N)sc2c(F)ccc(-c3c(C(F)(F)F)cc4c(N5CCCN6C(=O)CC[C@H]6C5)nc(OC[C@@]56CCCN5C[C@H](F)C6)nc4c3F)c12", "SW620 cells (KRAS G12V)", "pIC50", "> 7.00"],
  ["CC1(O)COCCN(c2nc(OC[C@@]34CCCN3C[C@H](F)C4)nc3c(F)c(-c4ccc(F)c5sc(N)c(C#N)c45)c(C(F)(F)F)cc23)C1 (stereo partly shown)", "SW620 cells (KRAS G12V)", "pIC50", "> 7.00"],
  ["CCN(c1nc(OC[C@@]23CCCN2C[C@H](F)C3)nc2c(F)c(-c3ccc(F)c4sc(N)c(C#N)c34)c(C(F)(F)F)cc12)[C@H]1CCN(C(=O)N(C)C)C1", "SW620 cells (KRAS G12V)", "pIC50", "> 7.00"]
]}

Dear colleague, please send me the reported pIC50 for CC(=O)N1CCC(N(C)c2nc(OC[C@@]34CCCN3C[C@H](F)C4)nc3c(F)c(-c4ccc(F)c5sc(N)c(C#N)c45)c(C(F)(F)F)cc23)CC1 when you can. 6.00 to 7.00

Provide only the value of recorded pIC50 for C[C@@H]1CN(c2nc(OC[C@@]34CCCN3C[C@H](F)C4)nc3c(F)c(-c4ccc(F)c5sc(N)c(C#N)c45)c(C(F)(F)F)cc23)Cc2cc(C(=O)N(C)C)nn21 > 7.00

----------
- test.target: Avi-KRAS G12D (1-169) GppNHp/RAF1 RBD-3xFLAG (52-151) (Homo sapiens, UniProt P01116, G12D)
- Construct: Avi-KRAS G12D (1-169)
- Sequence (P01116 1-169 isoform P01116-2 G12D): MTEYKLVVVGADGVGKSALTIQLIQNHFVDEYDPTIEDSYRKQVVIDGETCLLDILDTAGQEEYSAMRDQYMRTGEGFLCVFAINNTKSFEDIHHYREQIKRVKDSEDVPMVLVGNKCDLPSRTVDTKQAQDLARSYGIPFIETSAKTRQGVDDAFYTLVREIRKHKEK
- assay: Raf1-KRAS G12D-GppNHP disruption HTRF assay (Biological Example 1)
- Format: binding
- conditions.used: KRAS G12D-GppNHp/RAF1 RBD HTRF
readout.label: IC50

These solved cases illustrate the format of a correct answer.
{"columns": ["molecule", "readout.label", "result"],
 "data": [
  ["CCC(=O)N1CC[C@@H](N(C)c2nc(OC[C@@]34CCCN3C[C@H](F)C4)nc3c(F)c(-c4ccc(F)c5sc(N)c(C#N)c45)c(Cl)cc23)[C@H]1C", "IC50", "100 to 1000 nM"],
  ["CCC(=O)N1CC[C@@](C)(N(C)c2nc(OC[C@@]34CCCN3C[C@H](F)C4)nc3c(F)c(-c4ccc(F)c5sc(N)c(C#N)c45)c(C(F)(F)F)cc23)[C@H]1C", "IC50", "1000 to 10000 nM"],
  ["CCC(=O)N1C[C@@H](N(C)c2nc(OC[C@@]34CCCN3C[C@H](F)C4)nc3c(F)c(-c4ccc(F)c5sc(N)c(C#N)c45)c(C(F)(F)F)cc23)C[C@@H]1C", "IC50", "100 to 1000 nM"]
]}

Jot down IC50 (Avi-KRAS G12D (1-169) GppNHp/RAF1 RBD-3xFLAG (52-151) (Homo sapiens, UniProt P01116, G12D)) of N#Cc1c(N)sc2c(F)ccc(-c3c(C(F)(F)F)cc4c(N5CCN6C(=O)CCC6C5)nc(OCC56CCCN5CC(F)C6)nc4c3F)c12 (centres unmarked) [Compound 412] . 100 to 1000 nM

State the measured IC50 (Avi-KRAS G12D (1-169) GppNHp/RAF1 RBD-3xFLAG (52-151) (Homo sapiens, UniProt P01116, G12D)) of C[C@@H]1[C@H](N(C)c2nc(OC[C@@]34CCCN3C[C@H](F)C4)nc3c(F)c(-c4ccc(F)c5sc(N)c(C#N)c45)c(C(F)(F)F)cc23)CCN1C(=O)N(C)C 100 to 1000 nM

----------
- test.target: Avi-KRAS WT (1-169) GppNHp/RAF1 RBD-3xFLAG (52-151) (Homo sapiens)
- Construct: Avi-KRAS WT (1-169)
- Sequence (P01116 1-169 isoform P01116-2): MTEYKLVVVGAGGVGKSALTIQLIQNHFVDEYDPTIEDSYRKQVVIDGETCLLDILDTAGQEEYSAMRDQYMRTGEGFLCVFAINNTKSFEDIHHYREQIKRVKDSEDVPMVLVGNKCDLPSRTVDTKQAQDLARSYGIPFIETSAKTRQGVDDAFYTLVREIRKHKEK
- assay: Raf1-KRAS WT-GppNHP disruption HTRF assay (Biological Example 1)
- Type: binding
- conditions.used: KRAS WT, GppNHp-loaded; Table 11
# IC50 annotations

{"columns": ["compound", "test.target", "IC50"],
 "data": [
  ["N#Cc1c(N)sc2c(F)ccc(-c3c(C(F)(F)F)cc4c(N(CCO)C5CC5)nc(OC[C@@]56CCCN5C[C@H](F)C6)nc4c3F)c12", "Avi-KRAS WT (1-169) GppNHp/RAF1 RBD-3xFLAG (52-151) (Homo sapiens)", "0.1 to 1 µM"],
  ["CN(c1nc(OC[C@@]23CCCN2C[C@H](F)C3)nc2c(F)c(-c3ccc(F)c4sc(N)c(C#N)c34)c(C(F)(F)F)cc12)[C@@H]1CCOC1", "Avi-KRAS WT (1-169) GppNHp/RAF1 RBD-3xFLAG (52-151) (Homo sapiens)", "0.1 to 1 µM"],
  ["Nc1nc2c(-c3c(C(F)(F)F)cc4c(N5CCCC(CO)C5)nc(OCC56CCCN5CCC6)nc4c3F)ccc(F)c2s1 (stereo not drawn)", "Avi-KRAS WT (1-169) GppNHp/RAF1 RBD-3xFLAG (52-151) (Homo sapiens)", "> 10 µM"],
  ["N#Cc1c(N)sc2c(F)ccc(-c3c(C(F)(F)F)cc4c(N5CC[C@H](CO)C5)nc(OC[C@@]56CCCN5C[C@H](F)C6)nc4c3F)c12", "Avi-KRAS WT (1-169) GppNHp/RAF1 RBD-3xFLAG (52-151) (Homo sapiens)", "0.1 to 1 µM"]
]}

Give IC50 only, for CO[C@H]1C[C@@H](N(C)c2nc(OC[C@@]34CCCN3C[C@H](F)C4)nc3c(F)c(-c4ccc(F)c5sc(N)c(C#N)c45)c(C(F)(F)F)cc23)C1 , using Avi-KRAS WT (1-169) GppNHp/RAF1 RBD-3xFLAG (52-151) (Homo sapiens) data. 0.1 to 1 µM

Report IC50 from Avi-KRAS WT (1-169) GppNHp/RAF1 RBD-3xFLAG (52-151) (Homo sapiens) testing of CC(=O)N1CC[C@H](N(C)c2nc(OC[C@@H]3CC4(CC4)CN3C)nc3c(F)c(-c4ccc(F)c5sc(N)c(C#N)c45)c(C(F)(F)F)cc23)[C@@H]1C > 10 µM

# credit: patent US20260042764A1
